Target: human ETA receptors (Homo sapiens)
Construct: endogenous in cells; host or cells: TE 671 cells (ATCC HTB 139), membrane preparation
Sequence (P25101 21-427): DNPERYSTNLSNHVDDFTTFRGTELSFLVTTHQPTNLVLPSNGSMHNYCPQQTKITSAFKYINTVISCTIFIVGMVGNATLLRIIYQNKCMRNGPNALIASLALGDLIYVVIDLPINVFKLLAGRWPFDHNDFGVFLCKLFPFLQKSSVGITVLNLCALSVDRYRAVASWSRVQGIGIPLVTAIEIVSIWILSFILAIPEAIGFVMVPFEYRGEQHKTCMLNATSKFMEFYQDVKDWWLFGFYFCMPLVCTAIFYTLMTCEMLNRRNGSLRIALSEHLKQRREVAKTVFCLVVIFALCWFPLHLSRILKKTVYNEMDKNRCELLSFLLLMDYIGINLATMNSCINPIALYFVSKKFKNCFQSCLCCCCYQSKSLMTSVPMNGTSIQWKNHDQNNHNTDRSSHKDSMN
Experiment: Endothelin binding inhibition, Binding Test #1: competition with 125I-ET-1 for ETA receptors on TE 671 cell membranes
Details: incubation at 24° C. (values marked †)
Listed below: IC50 values for each entry.
Quick note: give the figure in µM, leave out the unit.

Worked cases, IC50 given:
> print(dat)
                                   compound  endpointresult
1  CC(=O)c1cc2c(cc1NC(=O)c1sccc1S(=O)(=O)Nc1onc(C)c1C)OCO2           0.032
2  Cc1cc(CCC(C)C)ccc1-c1ccsc1S(=O)(=O)Nc1onc(C)c1Br           0.107
3     CCc1oc2ccccc2c1S(=O)(=O)Nc1onc(C)c1Cl            0.15

Task: Reported IC50 for Cc1noc(NS(=O)(=O)c2ccsc2C(=O)Nc2ccc3c(c2)OCO3)c1Br : what is it?
Output: 0.017

Task: Reported IC50 for Cc1noc(NS(=O)(=O)c2c(-c3ccccc3C#N)sc3ccccc23)c1Cl : what is it?
Output: 6.33

Task: Reported IC50 for Cc1cc(C)c(NS(C)(=O)=O)c(C)c1NC(=O)c1sccc1S(=O)(=O)Nc1onc(C)c1Cl : what is it?
Output: 0.00162

Task: Reported IC50 for Cc1noc(NS(=O)(=O)c2ccsc2N)c1Cl : what is it?
Output: 14

Task: Reported IC50 for Cc1noc(NS(=O)(=O)c2ccsc2NC(=O)Nc2ccc3c(c2)OCO3)c1Br : what is it?
Output: 0.57

Task: Reported IC50 for Cc1cc(CC(C)C)ccc1-c1ccsc1S(=O)(=O)Nc1onc(C)c1Br : what is it?
Output: 0.0468

Task: Reported IC50 for Cc1noc(NS(=O)(=O)c2ccsc2C(=O)Oc2ccccc2)c1C : what is it?
Output: 2.85

Task: Reported IC50 for Cc1cc(C)c(OC(=O)c2sccc2S(=O)(=O)Nc2onc(C)c2Cl)c(C)c1 : what is it?
Output: 0.0776
